Ref: patent US20240327417A1

Molecular target: Full length DGKα (D21-10BG, SignalChem) (Homo sapiens, UniProt P23743)
Sequence (P23743 whole entry): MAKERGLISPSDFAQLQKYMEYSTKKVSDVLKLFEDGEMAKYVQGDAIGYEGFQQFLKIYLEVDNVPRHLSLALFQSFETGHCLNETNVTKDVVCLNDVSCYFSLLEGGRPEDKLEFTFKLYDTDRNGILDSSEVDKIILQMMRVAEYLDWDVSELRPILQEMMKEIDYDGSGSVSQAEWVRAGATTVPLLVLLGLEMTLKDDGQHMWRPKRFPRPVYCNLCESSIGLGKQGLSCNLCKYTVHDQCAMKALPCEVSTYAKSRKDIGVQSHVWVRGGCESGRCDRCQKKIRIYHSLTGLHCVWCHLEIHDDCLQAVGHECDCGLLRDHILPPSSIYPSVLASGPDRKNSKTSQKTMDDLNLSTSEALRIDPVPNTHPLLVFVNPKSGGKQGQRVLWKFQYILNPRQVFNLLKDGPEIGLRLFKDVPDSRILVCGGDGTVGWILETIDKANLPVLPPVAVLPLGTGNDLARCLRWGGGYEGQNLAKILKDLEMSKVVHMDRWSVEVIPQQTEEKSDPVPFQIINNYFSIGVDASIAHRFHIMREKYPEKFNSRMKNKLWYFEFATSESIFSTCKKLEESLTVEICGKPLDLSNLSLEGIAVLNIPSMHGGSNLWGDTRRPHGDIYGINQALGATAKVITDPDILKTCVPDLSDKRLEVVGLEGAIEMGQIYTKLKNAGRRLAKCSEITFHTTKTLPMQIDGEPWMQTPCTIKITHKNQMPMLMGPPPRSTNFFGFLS
pIC50: −log10 of the molar value.
Lab note: compare pIC50 against 6. Equal or greater, write T. Smaller, write F.

>  <Molecule>
CC#CCc1cn2c(n1)c(N1C[C@@H](CC)N(C(C)c3ccc4nc(C)sc4c3F)C[C@@H]1CC)cc(=O)n2C (single isomer, unassigned) [Compound A116a]

>  <Qualitative Label>
T

$$$$
>  <Molecule>
CC[C@H]1CN(C(C)c2ccc(C3CC3)nc2)[C@H](CC)CN1c1cc(=O)n(C)n2cc(CC#N)nc12 (single isomer, unassigned) [Compound A37a]

>  <Qualitative Label>
T

$$$$
>  <Molecule>
CC[C@H]1CN(C(C)c2ccc(F)cc2C(F)F)[C@H](CC)CN1c1cc(=O)n(C)n2cc(CC#N)nc12 (stereo partly drawn)

>  <Qualitative Label>
F

$$$$
>  <Molecule>
CC(c1ccc2c(c1)OC(F)(F)O2)N1C[C@H](C)N(c2cc(=O)n(C)n3cc(CC#N)nc23)C[C@H]1C (stereo partly drawn)

>  <Qualitative Label>
F

$$$$
>  <Molecule>
CC[C@H]1CN(C(C)c2ccc3nc(C)sc3c2F)[C@H](C)CN1c1cc(=O)n(C)n2cc(CC#N)nc12 (single isomer, unassigned) [Compound A119a]

>  <Qualitative Label>
F

$$$$
>  <Molecule>
CC[C@H]1CN(C(C)c2ccc3ncsc3c2)[C@H](CC)CN1c1cc(=O)n(C)n2cc(CC#N)nc12 (stereo partly drawn) [Compound A53]

>  <Qualitative Label>
T

$$$$
>  <Molecule>
CC[C@H]1CN(C(C)c2ccc3ncsc3n2)[C@H](CC)CN1c1c(C#N)c(=O)n(C)n2cc(CC#N)nc12 (stereo partly drawn)

>  <Qualitative Label>
T

$$$$
>  <Molecule>
CC[C@@H]1CN(c2cc(=O)n(C)n3cc(CC#N)nc23)[C@@H](C)CN1C(C)c1cc2sc(C)nc2cc1F (single isomer, unassigned) [Compound A60b]

>  <Qualitative Label>
F

$$$$
>  <Molecule>
CC[C@H]1CN(C(C)c2ccc3nc(C)sc3c2)[C@H](CC)CN1c1cc(=O)n(C)n2cc(CC#N)nc12 (single isomer, unassigned) [Compound A56a]

>  <Qualitative Label>
T

$$$$
>  <Molecule>
CC[C@H]1CN(C(C)c2ccc3ncsc3c2F)[C@H](CC)CN1c1cc(=O)n(C)n2cc(CC#N)nc12 (single isomer, unassigned) [Compound A62a]

>  <Qualitative Label>
T

$$$$
